Just for reference, the supplement of paper PMC11061612 is where these values come from.

- Tested on: CS1 (Chondrosarcoma)
- Protocol text: combination Emax (second highest fraction inhibited in the dose matrix, 72 h); higher = more inhibition; extreme values may be limits of the assay
# cutoff 0.5 applies to combination Emax; >= gives true, < gives false

* Cc1c2c(nn1C)CSCc1cc(n(C)n1)CSc1cc(c3ccccc3c1)OCCCc1c(C(=O)O)n(C)c3c-2c(Cl)ccc13 [AZD5991] + C[C@@H]1COCCN1C2=NC(=NC(=C2)C3(CC3)[S@](=N)(=O)C)C4=C5C=CNC5=NC=C4 [AZD6738] (first compound max 1 µM, 7x7, partner max 10 µM) | true
* CCN(CCO)CCCOc1ccc2c(Nc3cc(CC(=O)Nc4cccc(F)c4)[nH]n3)ncnc2c1 [AZD2811] + O=C(c1cc(Cc2n[nH]c(=O)c3ccccc23)ccc1F)N1CCN(C(=O)C2CC2)CC1 [Olaparib] (first compound max 1 µM, 7x7, partner max 10 µM) | false
* CC1(C)CCC(CN2CCN(c3ccc(C(=O)NS(=O)(=O)c4ccc(NCC5CCOCC5)c([N+](=O)[O-])c4)c(Oc4cnc5[nH]ccc5c4)c3)CC2)=C(c2ccc(Cl)cc2)C1 [Venetoclax] + CN(C)CCCOc1ccc(-c2ccc3ncc4c(c3c2)n(C2CCOCC2)c(=O)n4C)cn1 [AZD0156] (first compound max 1 µM, 7x7, partner max 1 µM) | true
* CS(=O)(=O)CCNCc1ccc(-c2ccc3ncnc(Nc4ccc(OCc5cccc(F)c5)c(Cl)c4)c3c2)o1 [Lapatinib] + Cn1cnc2c(F)c(Nc3ccc(Br)cc3Cl)c(C(=O)NOCCO)cc21 [Selumetinib] (first compound max 10 µM, 7x7, partner max 10 µM) | true
* CCN(CCO)CCCOc1ccc2c(Nc3cc(CC(=O)Nc4cccc(F)c4)[nH]n3)ncnc2c1 [AZD2811] + C=CCn1c(=O)c2cnc(Nc3ccc(N4CCN(C)CC4)cc3)nc2n1-c1cccc(C(C)(C)O)n1 [AZD1775] (first compound max 1 µM, partner max 1 µM) | false

Now for another entry.
Data request: Reported combination Emax reaches at least 0.5 for NC1(C(=O)N[C@@H](CCO)c2ccc(Cl)cc2)CCN(c2ncnc3[nH]ccc23)CC1 [Capivasertib] + CC(=O)c1c(C)c2cnc(Nc3ccc(N4CCNCC4)cn3)nc2n(C2CCCC2)c1=O [Palbociclib] (first compound max 10 µM, 7x7, partner max 10 µM) ?
Data returned: false
